Could you please report measured protein stability index for the items listed next?
B1: MNAT1 (parent)
chain: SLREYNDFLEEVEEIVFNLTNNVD

variants of: B1; experiment: protein stability index of a GFP-peptide fusion (GPS, HEK-293T) (PSI 1-6); higher = more stable; conditions: c terminus: a fixed tail appended;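 note: lentivirally expressed fusions sorted by FACS into six bins by GFP to DsRed ratio, PSI derived from sequencing read proportions per bin multiplied by bin number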
Give the value as a plain number.

Prompt: What value of measured protein stability index is listed for SLRPYNDFLEEVEEIVFNLTNNVD [E4P] ?
Completion: 2.98

Prompt: Next record, please: SLREYNDFLEEVEEIVFNLNNNVD [T20N]
Completion: 2.56

Prompt: Input SLREYNDFLEEVEEIVFNCTNNVD [L19C]
Completion: 3.34

Prompt: What do we get for SVREYNDFLEEVEEIVFNLTNNVD [L2V] ?
Completion: 2.33

Prompt: Input SLREYNDFLEEEEEIVFNLTNNVD [V12E]
Completion: 4.49

Prompt: Subsequent entry: SLREYNDFLEEVEEIVFNLTNNVV [D24V]
Completion: 1.65

Prompt: Okay, and SLRYYNDFLEEVEEIVFNLTNNVD [E4Y] ?
Completion: 1.39

Prompt: Another variant: SLREYNDFLEEVEEINFNLTNNVD [V16N]
Completion: 4.53

Prompt: Ok, now SLREYNDFFEEVEEIVFNLTNNVD [L9F]
Completion: 3.05

Prompt: Then this variant: SLREYNDFLEEVEEIVFTLTNNVD [N18T]
Completion: 2.55

Prompt: What about SLREYNDFLEIVEEIVFNLTNNVD [E11I] ?
Completion: 1.89

Prompt: Query PLREYNDFLEEVEEIVFNLTNNVD [S1P] next
Completion: 3.1

Prompt: Then what about the variant SLREYNDFLEEVEEIVFNLGNNVD [T20G] ?
Completion: 2.31

Prompt: Also, SLREYNDFLEEVEPIVFNLTNNVD [E14P] please.
Completion: 3.38

Prompt: Another variant to look at: SLREYNDFLEEVEEIVFNRTNNVD [L19R]
Completion: 3.34

Prompt: // next record SLREYNDFLEETEEIVFNLTNNVD [V12T]
Completion: 3.48

Prompt: Also check SLREYNDFLEEVEEIVFNGTNNVD [L19G]
Completion: 4.19

Prompt: Also SLREYNDFLEEVEEIVFNATNNVD [L19A] ?
Completion: 3.2

Prompt: Quick one: SLRKYNDFLEEVEEIVFNLTNNVD [E4K]
Completion: 2.75

Prompt: SEREYNDFLEEVEEIVFNLTNNVD [L2E] ?
Completion: 3.35

Prompt: Another variant to look at: SLREYNDFLEEVEEIVFNDTNNVD [L19D]
Completion: 4.43

Prompt: What do you have for SLREYNDFLEEVEEIVFNLTNNYD [V23Y] ?
Completion: 1.8

Prompt: And then SLREYNDFLEEVEEIVPNLTNNVD [F17P] , what is it?
Completion: 4

Prompt: Repeat for the following variant: SLREYNDFLEEVIEIVFNLTNNVD [E13I]
Completion: 2.58

Prompt: Also check SLREYNDFLEEVEEIVFNLDNNVD [T20D]
Completion: 3.91

Prompt: Field entry: SLREYNLFLEEVEEIVFNLTNNVD [D7L]
Completion: 1.94

Prompt: SLREYNDFLEESEEIVFNLTNNVD [V12S] , same question.
Completion: 4.5

Prompt: Subsequent entry: SPREYNDFLEEVEEIVFNLTNNVD [L2P]
Completion: 3.72

Prompt: // repeat for CLREYNDFLEEVEEIVFNLTNNVD [S1C] and report
Completion: 1.72

Prompt: For SLREYRDFLEEVEEIVFNLTNNVD [N6R] then?
Completion: 2.23

Prompt: Next: SLREYNTFLEEVEEIVFNLTNNVD [D7T]
Completion: 1.47

Prompt: Now consider SLREHNDFLEEVEEIVFNLTNNVD [Y5H] and answer again.
Completion: 3.81

Prompt: SLREYNDFLEEVEEIVFNLTNNPD [V23P] , same question.
Completion: 3.05

Prompt: Follow-up entry: SLREYNDFLEEVEEIVFNSTNNVD [L19S]
Completion: 4.18
